Reported IC50, substance P receptor (Homo sapiens, UniProt P25103).
Form entry: enter the amount, then its unit.

**Query** Query (compound): CN(Cc1cc(C(F)(F)F)cc(C(F)(F)F)c1)C(=O)c1c(-c2ccccc2)c2ccccc2c(=O)n1C [Example 157] ; field requested: IC50
**Result** 0.0012 µM

**Query** Query (compound): Cc1cc2c(-c3ccccc3)c(C(=O)NCc3cccc(Cl)c3)n(C)c(=O)c2cc1C [Example 130] ; field requested: IC50
**Result** 0.038 µM

**Query** Query (compound): Cc1ccccc1-c1c(C[S+]([O-])Cc2cc(C(F)(F)F)cc(C(F)(F)F)c2)n(C)c(=O)c2ccccc12 (stereo not shown) [Example 218] ; field requested: IC50
**Result** 0.023 µM

**Query** Query (compound): Cn1c(C(=O)NCc2cc(C(F)(F)F)cc(C(F)(F)F)c2)c(-c2ccc(F)cc2)c2ccccc2c1=O [Example 165] ; field requested: IC50
**Result** 0.024 µM

**Query** Query (compound): Cn1c(C(=O)NCc2cc(C(F)(F)F)cc(C(F)(F)F)c2)c(-c2ccccc2)c2cc(Cl)ccc2c1=O [Example 173] ; field requested: IC50
**Result** 0.024 µM

**Query** Query (compound): COc1ccccc1CNC1CCCn2c1c(-c1ccccc1)c1ccccc1c2=O (stereo not shown) [Example 239] ; field requested: IC50
**Result** 0.08 µM

**Query** Query (compound): Cc1nc2ccccc2c(-c2ccccc2)c1C(=O)N(C)Cc1cc(C(F)(F)F)cc(C(F)(F)F)c1 [Example 267] ; field requested: IC50
**Result** 0.00068 µM
